Biological target: T1, Recombinant human B7-2/CD86 Fc chimera (Cat. 141-B2-100, R&D Systems) (human, UniProt P42081 26-245)
T1 construct: Fc part of the bought chimera not given; not described
T1 sequence (looked up): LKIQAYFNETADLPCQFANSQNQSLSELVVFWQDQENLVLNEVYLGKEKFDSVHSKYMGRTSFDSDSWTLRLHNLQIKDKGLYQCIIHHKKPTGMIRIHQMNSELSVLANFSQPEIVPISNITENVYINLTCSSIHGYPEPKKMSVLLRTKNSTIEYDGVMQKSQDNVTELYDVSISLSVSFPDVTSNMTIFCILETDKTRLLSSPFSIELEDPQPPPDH
Assay: competitive ELISA; coated CD28 Fc, biotinylated B7-2/CD86 Fc, construct titrated

{"binder": "RAB011 (other, rDVD-Ig with LEA29Y on the heavy chain only and anti-NGF variable domains; also called RAB011H; RAB011L) VH: AMHVAQPAVVLASSRGIASFVCEYASPGKYTEVRVTVLRQADSQVTEVCAATYMMGNELTFLDDSICTGTSSGNQVNLTIQGLRAMDTGLYICKVELMYPPPYYEGIGNGTQIYVIDPEPCPDSDASTKGPQVQLQESGPGLVKPSETLSLTCTVSGFSLIGYDLNWIRQPPGKGLEWIGIIWGDGTTDYNSAVKSRVTISKDTSKNQFSLKLSSVTAADTAVYYCARGGYWYATSYYFDYWGQGTLVTVSS VL: DIQMTQSPSSLSASVGDRVTITCRASQSISNNLNWYQQKPGKAPKLLIYYTSRFHSGVPSRFSGSGSGTDFTFTISSLQPEDIATYYCQQEHTLPYTFGQGTKLEIKR", "units": "nM", "EC50": 1.3}
{"binder": "RAB008 (other, rDVD-Ig with LEA29Y on the heavy chain only; also called RAB008H; RAB008L) VH: AMHVAQPAVVLASSRGIASFVCEYASPGKYTEVRVTVLRQADSQVTEVCAATYMMGNELTFLDDSICTGTSSGNQVNLTIQGLRAMDTGLYICKVELMYPPPYYEGIGNGTQIYVIDPEPCPDSDASTKGPEVQLVQSGAEVKKPGASVKVSCKASGYTFTKYWLGWVRQAPGQGLEWMGDIYPGYDYTHYNEKFKDRVTLTTDTSTSTAYMELRSLRSDDTAVYYCARSDGSSTYWGQGTLVTVSS VL: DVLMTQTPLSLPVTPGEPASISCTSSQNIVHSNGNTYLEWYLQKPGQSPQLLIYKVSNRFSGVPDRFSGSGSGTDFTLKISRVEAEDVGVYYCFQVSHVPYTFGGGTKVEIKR", "units": "nM", "EC50": 1}
{"binder": "RAB014 (other, rDVD-Ig with LEA29Y on the heavy chain only and a long linker; also called RAB014H; RAB014L) VH: AMHVAQPAVVLASSRGIASFVCEYASPGKYTEVRVTVLRQADSQVTEVCAATYMMGNELTFLDDSICTGTSSGNQVNLTIQGLRAMDTGLYICKVELMYPPPYYEGIGNGTQIYVIDPEPCPDSDASTKGPSVFPLAPEVQLVQSGAEVKKPGASVKVSCKASGYTFTKYWLGWVRQAPGQGLEWMGDIYPGYDYTHYNEKFKDRVTLTTDTSTSTAYMELRSLRSDDTAVYYCARSDGSSTYWGQGTLVTVSS VL: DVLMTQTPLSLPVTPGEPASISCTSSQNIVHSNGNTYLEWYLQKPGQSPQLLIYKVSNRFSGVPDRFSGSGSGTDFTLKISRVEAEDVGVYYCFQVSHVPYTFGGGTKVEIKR", "units": "nM", "EC50": 1.1}
{"binder": "RAB021 (other, rDVD-Ig with LEA29Y on the light chain only and a QH linker; also called RAB021H; RAB021L) VH: EVQLVQSGAEVKKPGASVKVSCKASGYTFTKYWLGWVRQAPGQGLEWMGDIYPGYDYTHYNEKFKDRVTLTTDTSTSTAYMELRSLRSDDTAVYYCARSDGSSTYWGQGTLVTVSS VL: AMHVAQPAVVLASSRGIASFVCEYASPGKYTEVRVTVLRQADSQVTEVCAATYMMGNELTFLDDSICTGTSSGNQVNLTIQGLRAMDTGLYICKVELMYPPPYYEGIGNGTQIYVIDPEPCPDSDQEPKSSDKTHTSPDVLMTQTPLSLPVTPGEPASISCTSSQNIVHSNGNTYLEWYLQKPGQSPQLLIYKVSNRFSGVPDRFSGSGSGTDFTLKISRVEAEDVGVYYCFQVSHVPYTFGGGTKVEIKR", "units": "nM", "EC50": 0.8}

Data credit: patent US20140219913A1
